Entries and their measured hGREM1-His Inhibition IC50, M; W-20-17 cell differentiation assay (alkaline phosphatase) follow.
# Test target: T1, recombinant human GREM1 (hGREM1-His; C-terminal 10His tagged, R&D, #5190-GR) (human, UniProt O60565 25-184, limits assumed)
# T1 sequence: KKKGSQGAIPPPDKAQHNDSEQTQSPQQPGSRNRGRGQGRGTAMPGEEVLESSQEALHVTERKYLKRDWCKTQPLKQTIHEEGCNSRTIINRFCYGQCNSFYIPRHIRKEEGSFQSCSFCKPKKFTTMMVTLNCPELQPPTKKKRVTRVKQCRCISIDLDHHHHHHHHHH
# Assay summary: cell-based or functional assay

Tell me hGREM1-His Inhibition IC50, M; W-20-17 cell differentiation assay (alkaline phosphatase) reported for H4H2895N (antibody, human IgG4, V domains shown, H4H prefix = human IgG4 Fc) VH: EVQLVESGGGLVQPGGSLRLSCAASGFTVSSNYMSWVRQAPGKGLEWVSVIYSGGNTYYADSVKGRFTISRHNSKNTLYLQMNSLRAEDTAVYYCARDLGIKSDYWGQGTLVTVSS VL: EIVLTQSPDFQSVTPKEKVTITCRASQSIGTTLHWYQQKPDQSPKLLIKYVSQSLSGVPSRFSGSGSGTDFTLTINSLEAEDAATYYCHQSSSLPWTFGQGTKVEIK
1.9 nM

Tell me hGREM1-His Inhibition IC50, M; W-20-17 cell differentiation assay (alkaline phosphatase) reported for H4H6240P (antibody, human IgG4, V domains shown, H4H prefix = human IgG4 Fc) VH: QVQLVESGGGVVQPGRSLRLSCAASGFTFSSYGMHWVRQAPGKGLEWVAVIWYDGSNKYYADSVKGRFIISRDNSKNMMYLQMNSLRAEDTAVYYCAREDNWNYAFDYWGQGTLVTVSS VL: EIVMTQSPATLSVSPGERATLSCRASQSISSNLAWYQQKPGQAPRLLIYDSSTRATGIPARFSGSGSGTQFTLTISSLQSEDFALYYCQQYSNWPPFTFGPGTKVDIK
7.8 nM

Further cases:
Tell me hGREM1-His Inhibition IC50, M; W-20-17 cell differentiation assay (alkaline phosphatase) reported for H4H6251P (antibody, human IgG4, V domains shown, H4H prefix = human IgG4 Fc) VH: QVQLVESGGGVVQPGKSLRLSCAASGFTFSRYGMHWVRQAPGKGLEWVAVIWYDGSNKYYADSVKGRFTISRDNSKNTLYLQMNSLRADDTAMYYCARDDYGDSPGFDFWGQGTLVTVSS VL: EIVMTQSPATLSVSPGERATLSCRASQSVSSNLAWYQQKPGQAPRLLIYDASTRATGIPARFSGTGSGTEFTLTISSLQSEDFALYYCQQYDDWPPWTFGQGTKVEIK
11 nM
